Target: human collagen type I (human) (UniProt P02452)
Sequence (P02452 162-1218 limits assumed, chain 1 of 2): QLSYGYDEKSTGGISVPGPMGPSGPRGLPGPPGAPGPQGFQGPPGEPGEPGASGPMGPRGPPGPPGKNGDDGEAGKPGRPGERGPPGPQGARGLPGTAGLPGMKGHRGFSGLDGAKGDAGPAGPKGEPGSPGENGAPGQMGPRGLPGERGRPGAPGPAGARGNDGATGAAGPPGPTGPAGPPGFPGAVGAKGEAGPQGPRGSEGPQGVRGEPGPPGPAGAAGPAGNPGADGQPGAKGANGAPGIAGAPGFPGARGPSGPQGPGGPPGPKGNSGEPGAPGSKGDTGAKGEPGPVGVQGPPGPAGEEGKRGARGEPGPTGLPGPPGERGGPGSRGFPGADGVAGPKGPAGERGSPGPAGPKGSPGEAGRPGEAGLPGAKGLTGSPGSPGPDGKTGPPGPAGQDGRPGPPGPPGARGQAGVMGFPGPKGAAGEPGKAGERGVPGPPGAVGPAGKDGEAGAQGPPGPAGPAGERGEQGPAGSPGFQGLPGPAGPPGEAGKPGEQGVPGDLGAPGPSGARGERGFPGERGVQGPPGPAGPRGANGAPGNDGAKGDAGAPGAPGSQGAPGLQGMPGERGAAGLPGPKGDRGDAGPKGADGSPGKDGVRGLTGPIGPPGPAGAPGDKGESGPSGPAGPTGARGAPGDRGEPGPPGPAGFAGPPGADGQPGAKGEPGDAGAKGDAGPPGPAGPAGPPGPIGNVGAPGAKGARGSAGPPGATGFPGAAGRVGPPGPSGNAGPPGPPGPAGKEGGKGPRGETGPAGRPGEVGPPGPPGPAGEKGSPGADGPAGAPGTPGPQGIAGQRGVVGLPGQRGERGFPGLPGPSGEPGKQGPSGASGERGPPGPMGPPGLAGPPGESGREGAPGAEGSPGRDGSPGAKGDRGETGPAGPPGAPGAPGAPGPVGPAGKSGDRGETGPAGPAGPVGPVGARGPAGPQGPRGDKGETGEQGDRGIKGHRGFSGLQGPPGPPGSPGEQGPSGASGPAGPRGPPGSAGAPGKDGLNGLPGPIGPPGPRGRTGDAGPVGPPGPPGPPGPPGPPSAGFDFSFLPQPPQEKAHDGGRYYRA
Sequence (P08123 80-1119 limits assumed, chain 2 of 2, further chain): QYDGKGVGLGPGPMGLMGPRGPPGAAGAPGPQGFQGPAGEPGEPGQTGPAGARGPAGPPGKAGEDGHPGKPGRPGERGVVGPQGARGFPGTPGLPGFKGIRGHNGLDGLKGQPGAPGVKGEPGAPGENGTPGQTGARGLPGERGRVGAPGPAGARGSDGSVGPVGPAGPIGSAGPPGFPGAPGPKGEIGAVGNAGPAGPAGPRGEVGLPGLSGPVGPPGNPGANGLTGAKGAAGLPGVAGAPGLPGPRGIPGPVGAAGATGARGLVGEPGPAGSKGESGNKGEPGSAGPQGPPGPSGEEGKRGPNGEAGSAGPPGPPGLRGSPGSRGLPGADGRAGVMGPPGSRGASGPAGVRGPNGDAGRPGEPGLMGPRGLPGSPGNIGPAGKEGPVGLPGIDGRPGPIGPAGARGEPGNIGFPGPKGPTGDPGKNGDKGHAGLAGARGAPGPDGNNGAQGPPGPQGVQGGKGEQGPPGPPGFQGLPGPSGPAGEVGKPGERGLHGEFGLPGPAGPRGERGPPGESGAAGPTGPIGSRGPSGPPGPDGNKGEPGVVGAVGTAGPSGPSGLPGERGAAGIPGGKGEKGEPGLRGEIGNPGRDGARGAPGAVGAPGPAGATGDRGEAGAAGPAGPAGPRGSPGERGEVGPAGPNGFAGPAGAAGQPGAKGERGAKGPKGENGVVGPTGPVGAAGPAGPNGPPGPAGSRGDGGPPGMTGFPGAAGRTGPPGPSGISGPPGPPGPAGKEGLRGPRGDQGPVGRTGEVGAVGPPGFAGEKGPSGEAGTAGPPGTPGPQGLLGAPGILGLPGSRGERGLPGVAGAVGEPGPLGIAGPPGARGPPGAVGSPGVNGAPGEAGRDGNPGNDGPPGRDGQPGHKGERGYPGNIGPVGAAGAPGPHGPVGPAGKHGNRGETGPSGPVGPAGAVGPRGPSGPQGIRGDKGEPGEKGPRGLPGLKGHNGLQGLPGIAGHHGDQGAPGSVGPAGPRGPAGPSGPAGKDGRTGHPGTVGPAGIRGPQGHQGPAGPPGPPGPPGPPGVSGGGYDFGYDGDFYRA
Experiment: dried collagen assay, 5 uM peptide
Bridge positions count the residues as written; N and C are the ends. Square brackets hold non-standard residues; d marks the D form. Ends that are not written are not given here. Sar = CNCC(=O)O
value-type: % Collagen Binding, Dried Human (%)

binder	% Collagen Binding, Dried Human [%]
GQW[dT]CSGDEYTWHCNYE (disulfide 5-14 (inferred)) [SEQ ID NO: 166]	2

A. YH[dA]CYQAGCWIW (disulfide 4-9 (inferred)) [SEQ ID NO: 154]
B. YHACYQA[Sar]CWIW (disulfide 4-9 (inferred)) [SEQ ID NO: 104]
## Task Could you kindly indicate whether A or B has the higher % Collagen Binding, Dried Human value? Pick one; state its label.
## Result A

I. GQWTCSGDEY[dT]WHCNYE (disulfide 5-14 (inferred); not fully specified (C-terminus)) [SEQ ID NO: 172]
II. YHAC[dY]QAGCWIW (disulfide 4-9 (inferred)) [SEQ ID NO: 156]
III. DWTCS[dL]DEYTWHCNYE (disulfide 4-13 (inferred); not fully specified (C-terminus); printed as D W T C S l D E Y T W H C N Y E) [SEQ ID NO: 183]
## Task Rank by % Collagen Binding, Dried Human (largest to smallest). # output: labels, in the requested order
## Result III, II, I
(III: 73%, II: 38%, I: 9%)

I. GQWTCSGDE[dY]TWHCNYE (disulfide 5-14 (inferred); not fully specified (C-terminus)) [SEQ ID NO: 171]
II. GQWTCSGDEYTWHCN[dY]E (disulfide 5-14 (inferred); not fully specified (C-terminus)) [SEQ ID NO: 177]
## Task Which of these two has the smaller recorded % Collagen Binding, Dried Human: I or II ? Pick one; state its label.
## Result I
